Please go through the items and note down their folding stability dG.
B1: EEHEE_rd3_1049 (parent)
chain: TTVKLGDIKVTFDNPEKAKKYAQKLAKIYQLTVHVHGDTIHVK

# Variants of: B1
# protocol.notes: folding stability dG (cDNA display proteolysis); higher = more stable
# experimental.setup: PBS, room temperature
Give bare numbers, in kcal/mol.

For orientation, consider the following solved cases.
> print(dat)
   variant        assay.endpoint   val
1     K19C  folding stability dG  3.38
2     K24S  folding stability dG  1.57
3      L5V  folding stability dG  2.08
4     K17L  folding stability dG  2.17
5     P15N  folding stability dG  1.43

Give folding stability dG for each of the items listed below.
1. L31V
2. I28P
3. N14Y
4. K43R
5. H34D
6. V10L
7. V3A
8. K20W

Result:
1: 1.08; 2: -0.832; 3: 1.05; 4: 2.36; 5: 1.58; 6: 2.08; 7: 0.626; 8: 2.18

Reference for the values: the MegaScale stability set (Tsuboyama et al. 2023)
